Ref: the supplement of paper PMC10065799

target.entity: Hck (UniProt P08631)
Sequence (P08631 whole entry, looked up): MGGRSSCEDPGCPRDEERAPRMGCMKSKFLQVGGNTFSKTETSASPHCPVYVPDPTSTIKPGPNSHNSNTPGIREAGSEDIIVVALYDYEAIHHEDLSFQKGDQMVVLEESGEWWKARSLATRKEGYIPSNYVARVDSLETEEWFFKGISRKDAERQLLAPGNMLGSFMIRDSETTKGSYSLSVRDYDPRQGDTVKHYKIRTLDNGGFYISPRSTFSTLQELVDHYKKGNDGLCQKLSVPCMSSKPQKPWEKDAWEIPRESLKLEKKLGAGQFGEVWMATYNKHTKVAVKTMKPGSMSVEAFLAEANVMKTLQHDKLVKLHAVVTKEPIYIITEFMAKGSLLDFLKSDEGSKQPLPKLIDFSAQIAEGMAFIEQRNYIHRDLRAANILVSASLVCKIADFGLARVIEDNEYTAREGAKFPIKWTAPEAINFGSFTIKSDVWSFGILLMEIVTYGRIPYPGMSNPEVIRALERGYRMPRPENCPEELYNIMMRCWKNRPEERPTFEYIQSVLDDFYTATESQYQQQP
assay.summary: phosphorylation enrichment, bacterial display (enrichment ratio); higher = better substrate or ligand; peptides without Tyr show the background;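 note: 11-residue human phosphosite peptides and single-mutation variants displayed on the E. coli surface, counted by deep sequencing, each peptide's frequency after selection divided by its frequency in the unselected input library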;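 note: frequency after pTyr selection over input frequency; kinase dosed for 20-30% of maximal phosphorylation in three min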
Quick reference for phosphorylation enrichment among some sequences
Note: the reply should be a number with no unit written.

These recorded examples may help you get a feel for the data.
Param item = NWGKKYPTCNS [PTPRZ1_Y53] ; retrieve measured phosphorylation enrichment. 0.463

Param item = AFLGEYIPTVF [RAC2_Y32_P29L] ; retrieve measured phosphorylation enrichment. 0.516

Param item = VDSIEYEVASQ [SLC7A7_Y7_T5I] ; retrieve measured phosphorylation enrichment. 0.567

New cases:
Param item = FHNSEYGELSE [FLT4_Y1337_Y1333H] ; retrieve measured phosphorylation enrichment. 0.724

Param item = QWPGPYDRPGA [HNRNPH2_Y210_R206W] ; retrieve measured phosphorylation enrichment. 0.73

Param item = LRIAVYHEILI [CREBBP_Y1450_T1447I] ; retrieve measured phosphorylation enrichment. 2.74

Param item = IRKDLYANNVL [ACTA2_Y296] ; retrieve measured phosphorylation enrichment. 0.45

Param item = REESTYLPLTS [ICAM3_Y527] ; retrieve measured phosphorylation enrichment. 3.17

Param item = RALRHYYKLNI [ETV6_Y401] ; retrieve measured phosphorylation enrichment. 0.95

Param item = RSAGKDDVFLI [MECP2_Y120_Y120D_YF] ; retrieve measured phosphorylation enrichment. 0.683

Param item = EYGSGYPNDPK [RNASEH2A_Y210_D205E] ; retrieve measured phosphorylation enrichment. 0.593

Param item = CTNIHYNFMCN [TP53_Y234_T231N_YF] ; retrieve measured phosphorylation enrichment. 0.426

Param item = FKEIVYAVSSD [DCX_Y70_G67E] ; retrieve measured phosphorylation enrichment. 2.25

Param item = PGLSSYGVPGS [FLNB_Y1530_A1534G] ; retrieve measured phosphorylation enrichment. 0.543

Param item = QFLMKYVRSAS [ABCD1_Y337_W339R] ; retrieve measured phosphorylation enrichment. 0.566

Param item = ADRLEYSRTGL [MMUT_Y287_G284R] ; retrieve measured phosphorylation enrichment. 0.346

Param item = LPEVSYVKAID [GLRA1_Y307_K304E] ; retrieve measured phosphorylation enrichment. 0.203

Param item = PDNEPYIFKVF [PIK3AP1_Y553] ; retrieve measured phosphorylation enrichment. 0.758

Param item = DSKIRYLSADS [TTF1_Y476_E473K] ; retrieve measured phosphorylation enrichment. 0.434

Param item = RTESQYQENRG [LRCH3_Y354_R350T] ; retrieve measured phosphorylation enrichment. 0.653

Param item = VTPVMYTFDEF [COL10A1_Y623_G618V_YF] ; retrieve measured phosphorylation enrichment. 0.531

Param item = AGLEEYSAMRD [HRAS_Y64_Q61L] ; retrieve measured phosphorylation enrichment. 0.523

Param item = FDDIACIRKTL [PIK3CA_Y1021_Y1021C] ; retrieve measured phosphorylation enrichment. 0.448

Param item = SFPHEYGSQEG [RBM10_Y48_R46H_YF] ; retrieve measured phosphorylation enrichment. 0.679

Param item = AQVDTYCRHNY [HLA-DRB1_Y107_A103Q] ; retrieve measured phosphorylation enrichment. 0.523

Param item = LIDSSYLTRTA [GREB1L_Y1063] ; retrieve measured phosphorylation enrichment. 0.425

Param item = LQLLGDRPVFS [CHST6_Y358_Y358D_YF] ; retrieve measured phosphorylation enrichment. 0.41
